Numbers sourced from patent US12059418B2.

# Tested on: PSAC
# assay_protocol: Transport inhibition assay, osmotic lysis of infected cells in sorbitol (Table 5)
# Format: cell-based, P. falciparum
# cond: 37° C., read-out: Transport inhibition K0.5
metric_name: IC50 (nM)
Response body: numeric value in nM, unit text excluded.

Entry O=C1CN(/N=C/c2ccc(-c3ccc([N+](=O)[O-])cc3)o2)C(=O)N1 [dantrolene, reference compound] , IC50 reported as 1200

Entry O=C1N=C(N2CCCC2)S/C1=C/c1cccc(Cl)c1 , IC50 reported as 44

Entry O=C1Nc2cc(C(=O)N3CCN(c4ccccc4)CC3)ccc2Sc2ccccc21 , IC50 reported as 25

Entry CCCCN(CC)C(=O)c1cc2cc3ccc(C)cc3nc2o1 , IC50 reported as 87

Entry COc1ccc2cc3cc(C(=O)N(C)C4CCCCC4)oc3nc2c1 , IC50 reported as 33

Entry CCN(Cc1ccccc1)C(=O)c1ccc2c(c1)NC(=O)c1ccccc1S2 , IC50 reported as 84

Entry Cc1ccc(C)c(N2CCN(S(=O)(=O)c3ccc(-c4ccc(=O)[nH]n4)s3)CC2)c1 , IC50 reported as 2.6

Entry CC1=Nc2ccc(C)cc2C1/C=C1/C(=N)N2N=C(S(=O)(=O)CC(C)C)SC2=NC1=O (centres unmarked) , IC50 reported as 81

---

# study_target: channels associated with clag3.2 gene from Dd2 (Plasmodium falciparum)
# Construct: rows headed: K0.5; other: clag3.2 from Dd2
# Sequence (A0A1W6IZK1 whole entry, looked up): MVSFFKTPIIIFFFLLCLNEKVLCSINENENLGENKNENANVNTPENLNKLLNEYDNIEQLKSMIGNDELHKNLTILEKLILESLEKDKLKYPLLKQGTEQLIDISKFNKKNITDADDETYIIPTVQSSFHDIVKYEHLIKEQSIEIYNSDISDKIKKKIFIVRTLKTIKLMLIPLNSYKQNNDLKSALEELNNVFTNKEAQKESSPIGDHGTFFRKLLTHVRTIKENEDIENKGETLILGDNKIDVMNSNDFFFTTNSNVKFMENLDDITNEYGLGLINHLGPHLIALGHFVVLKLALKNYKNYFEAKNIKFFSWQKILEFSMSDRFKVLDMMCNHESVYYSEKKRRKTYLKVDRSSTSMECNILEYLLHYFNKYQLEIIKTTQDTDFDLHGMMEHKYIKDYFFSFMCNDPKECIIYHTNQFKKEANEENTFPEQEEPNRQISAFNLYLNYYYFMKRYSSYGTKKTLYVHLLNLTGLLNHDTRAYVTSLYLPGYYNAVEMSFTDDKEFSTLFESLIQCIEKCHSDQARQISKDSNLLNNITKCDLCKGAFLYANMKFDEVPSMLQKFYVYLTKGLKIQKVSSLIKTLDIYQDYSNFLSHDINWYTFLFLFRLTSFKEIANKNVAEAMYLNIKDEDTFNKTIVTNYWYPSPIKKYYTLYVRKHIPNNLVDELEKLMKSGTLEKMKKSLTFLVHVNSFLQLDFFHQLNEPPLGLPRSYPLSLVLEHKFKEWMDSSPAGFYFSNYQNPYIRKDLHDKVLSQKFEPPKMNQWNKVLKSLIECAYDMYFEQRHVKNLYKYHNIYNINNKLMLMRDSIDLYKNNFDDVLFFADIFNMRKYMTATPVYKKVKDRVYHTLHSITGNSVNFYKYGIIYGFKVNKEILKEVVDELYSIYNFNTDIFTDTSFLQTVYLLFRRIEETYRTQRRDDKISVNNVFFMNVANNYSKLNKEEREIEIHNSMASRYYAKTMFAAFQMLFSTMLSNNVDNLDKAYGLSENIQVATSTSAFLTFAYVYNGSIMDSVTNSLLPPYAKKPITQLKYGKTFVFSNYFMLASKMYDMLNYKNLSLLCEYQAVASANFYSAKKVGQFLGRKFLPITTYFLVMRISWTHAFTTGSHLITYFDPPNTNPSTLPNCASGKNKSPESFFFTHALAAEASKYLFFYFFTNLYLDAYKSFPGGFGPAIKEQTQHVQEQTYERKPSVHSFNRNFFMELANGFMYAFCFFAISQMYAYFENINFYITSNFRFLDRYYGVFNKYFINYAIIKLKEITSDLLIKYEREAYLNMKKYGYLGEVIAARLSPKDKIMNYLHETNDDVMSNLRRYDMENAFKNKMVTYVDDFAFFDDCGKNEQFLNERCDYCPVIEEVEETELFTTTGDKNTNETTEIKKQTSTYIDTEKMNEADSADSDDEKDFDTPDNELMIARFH
# assay_protocol: PSAC inhibition, 7C20 channels associated with clag3.2
# cond: read-out: K0.5; clag3.2 from Dd2
metric_name: IC50 (µM)
Response body: numeric value in µM, unit text excluded.

Entry CCC(CC)C(=O)Nc1ncc2c(n1)CC(c1ccc(OC)c(OC)c1)CC2=O (stereo not shown) [ISPA-43] , IC50 reported as 3.9

---

# System: P. falciparum
# assay_protocol: In vitro parasite killing, SYBR Green I fluorescence assay in RPMI 1640 or PLM (Example 1)
# Type: cell-based
# cond: ratio of IC50 RPMI/PLM
metric_name: Ratio (RPMI/PLM)
API doc: respond with a numeric literal and nothing else, no unit.

Form field Ratio (RPMI/PLM) for item C[C@@H]1CC[C@H]2[C@@H](C)C(=O)O[C@@H]3O[C@@]4(C)CC[C@@H]1[C@]32OO4 on P. falciparum: 0.66

Form field Ratio (RPMI/PLM) for item Cc1ccc(C)c(N2CCN(S(=O)(=O)c3ccc(-c4ccc(=O)[nH]n4)s3)CC2)c1 on P. falciparum: 800

Form field Ratio (RPMI/PLM) for item OC(c1cc(C(F)(F)F)nc2c(C(F)(F)F)cccc12)C1CCCCN1 (stereo not shown) on P. falciparum: 0.66

---

# assay_protocol: Mammalian cytotoxicity, MTS viability
# Type: cell-based, human
# cond: human, HeLa cells; 72 h, MTS; read-out: HeLa cell CC50
I'd appreciate it if you could supply CC50 at 72 h values for the items below.

Entry Cc1ccc(C)c(N2CCN(S(=O)(=O)c3ccc(-c4ccc(=O)[nH]n4)s3)CC2)c1 , CC50 at 72 h reported as 86 µM

Entry CCN(Cc1ccccc1)C(=O)c1ccc2c(c1)NC(=O)c1ccccc1S2 , CC50 at 72 h reported as > 100 µM

Entry CC1=Nc2ccc(C)cc2C1/C=C1/C(=N)N2N=C(S(=O)(=O)CC(C)C)SC2=NC1=O (stereo not drawn) , CC50 at 72 h reported as > 100 µM

Entry CCCCN(CC)C(=O)c1cc2cc3ccc(C)cc3nc2o1 , CC50 at 72 h reported as 30 µM

Entry O=C1Nc2cc(C(=O)N3CCN(c4ccccc4)CC3)ccc2Sc2ccccc21 , CC50 at 72 h reported as > 100 µM

Entry COc1ccc(NC(=O)c2cc3cc4ccc(C)cc4nc3o2)cc1 , CC50 at 72 h reported as > 100 µM
